Source listed as patent US20080161366A1.

Assign pIC50 to each entry below.
molecular target: human norepinephrine transporter (hNET) (Homo sapiens, UniProt P23975); test: hNET uptake, Protocol A: inhibition of [3H] NE uptake into cloned human NE transporters (MDCK cells); type: cell-based; parameters: expressed in transfected cells; host or cells: MDCK-Net6 cells; conditions: MDCK cells expressing hNET, [3H] NE 16 nM
Sequence (P23975 whole entry): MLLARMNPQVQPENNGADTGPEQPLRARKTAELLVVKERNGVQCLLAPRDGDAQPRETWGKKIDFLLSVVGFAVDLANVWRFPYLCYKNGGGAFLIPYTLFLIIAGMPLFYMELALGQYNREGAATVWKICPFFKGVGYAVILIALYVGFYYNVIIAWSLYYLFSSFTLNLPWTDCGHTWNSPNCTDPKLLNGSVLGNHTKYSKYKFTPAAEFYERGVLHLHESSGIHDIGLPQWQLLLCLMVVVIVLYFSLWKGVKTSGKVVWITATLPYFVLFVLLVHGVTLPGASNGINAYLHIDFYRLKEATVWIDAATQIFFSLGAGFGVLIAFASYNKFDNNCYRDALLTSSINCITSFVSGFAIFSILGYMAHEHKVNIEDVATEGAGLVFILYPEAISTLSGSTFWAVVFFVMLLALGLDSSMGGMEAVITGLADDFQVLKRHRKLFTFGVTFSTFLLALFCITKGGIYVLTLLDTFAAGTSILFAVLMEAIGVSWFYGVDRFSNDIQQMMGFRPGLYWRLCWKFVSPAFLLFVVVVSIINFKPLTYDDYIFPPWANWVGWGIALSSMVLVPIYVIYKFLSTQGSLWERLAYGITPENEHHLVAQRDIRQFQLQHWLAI
One number for each entry, as −log10 of the molar value.

Worked examples, 2 compounds total:
CN(C)CCCCN1c2ccccc2N(c2ccc(Cl)cc2)S1(=O)=O :: 5.23
NCCCCN1c2ccccc2N(c2ccc(Cl)cc2)S1(=O)=O :: 5.95

Provide reported pIC50 for each item, in the same order as listed.
1. O=S1(=O)N(CCCNC2CC2)c2ccccc2N1c1ccc(Cl)cc1
2. CNCCCCN1c2ccccc2N(c2ccc(Cl)cc2)S1(=O)=O
3. NCCCN1c2ccccc2N(c2ccc(Cl)cc2)S1(=O)=O
4. CNCCCN1c2ccccc2N(c2cccc(F)c2C)S1(=O)=O

Response:
5.37
6.32
5.60
7.40
